Reported AC50 values for a set of molecules
molecular target: Cytochrome P450 3A4 (Homo sapiens, UniProt P08684);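 note: CYP3A4 tested as one member of a cytochrome P450 panel screen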
Sequence (P08684 whole entry): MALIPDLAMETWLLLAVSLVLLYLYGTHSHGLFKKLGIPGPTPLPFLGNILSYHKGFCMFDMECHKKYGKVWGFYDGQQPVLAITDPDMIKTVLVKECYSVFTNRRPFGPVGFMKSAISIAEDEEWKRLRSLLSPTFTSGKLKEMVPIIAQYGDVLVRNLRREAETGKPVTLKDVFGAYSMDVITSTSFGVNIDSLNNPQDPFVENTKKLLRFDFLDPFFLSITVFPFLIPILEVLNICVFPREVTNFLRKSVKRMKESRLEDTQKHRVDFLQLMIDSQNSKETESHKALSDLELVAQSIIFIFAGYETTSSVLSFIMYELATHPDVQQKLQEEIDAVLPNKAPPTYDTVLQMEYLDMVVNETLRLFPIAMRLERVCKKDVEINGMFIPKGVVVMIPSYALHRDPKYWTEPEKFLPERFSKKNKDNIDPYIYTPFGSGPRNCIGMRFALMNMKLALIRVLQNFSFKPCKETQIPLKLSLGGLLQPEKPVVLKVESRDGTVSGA

molecule	AC50
CCOC(=O)CCCc1c[nH]c2ccccc12	31.6 µM (inconclusive)
O=C(NCC1CCCO1)c1onc(CSc2ccccc2F)c1C(=O)O (stereo not given)	25.1 µM (inconclusive)
Nc1ncnc(N(c2ccccc2)C2CCCCC2)c1[N+](=O)[O-]	6.31 µM (inconclusive)
O=C(c1ccco1)N1CCC2(CCCN(Cc3ccccc3)C2)CC1	12.6 µM (inconclusive)
Oc1c(/C=N/c2cccc(C(F)(F)F)c2)cnn1-c1cccc(Cl)n1	25.1 µM (inconclusive)
O=C(Cc1ccc(S(=O)(=O)N2CCOCC2)s1)Nc1nc2c(s1)CCCC2	14.1 µM (inconclusive)
C/C(=N\NC(=S)Nc1ccc(F)cc1)C1CC1	14.1 µM (inconclusive)
COc1ccccc1-c1nc(Nc2ccncc2)c2ccccc2n1	3.16 µM (inconclusive)
COCCn1c(=O)cnc2cnc(Oc3ccc(OC)cc3)nc21	15.8 µM (inconclusive)
COc1cc2cc3c4cc(OC)c(OC)cc4cc[n+]3c(C)c2cc1OC	10 µM (inconclusive)

----------
Biological target: Endoribonuclease toxin MazF (Escherichia coli K-12, UniProt P0AE70)
Sequence (P0AE70 whole entry): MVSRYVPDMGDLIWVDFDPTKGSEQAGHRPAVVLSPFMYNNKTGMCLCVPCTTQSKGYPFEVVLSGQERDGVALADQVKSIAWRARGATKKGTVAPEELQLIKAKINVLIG
Test: activation of MazEF endoribonuclease cleavage – biochemical, fluorescence, single-stranded RNA substrate, uHTS hits, dose response (AID 588481)
Assay type: functional
Calls of active or inactive are those of the source.
Outcomes: active, inactive

molecule	class label
CSc1nnc(N2C(=O)C(O)=C(C(=O)c3ccc(C)o3)C2c2ccc(C)cc2)s1 (configuration not stated)	active
Cc1ccc(-c2cc(-c3ccccc3)nc(N)c2C#N)o1	inactive
COc1ccc2c(c1)S/C(=C\C(=O)c1ccncc1)N2C	inactive
O=C(Nc1ccccc1)c1nn(-c2ccccc2)c(=O)cc1C(F)(F)F	inactive
NNS(=O)(=O)c1ccc(Sc2ccccn2)c([N+](=O)[O-])c1	inactive
Cc1nc(SCC(=O)Nc2cc(C)on2)c2c3c(sc2n1)CCCC3	inactive
CC1CC(=O)C2=C(C1)OC(N)=C(C#N)C2c1coc2ccccc2c1=O (configuration not stated)	inactive

----------
target: Methionyl-tRNA synthetase, putative (Trypanosoma brucei brucei, UniProt Q38C91); type: functional, Trypanosoma brucei brucei strain 927/4 GUTat10.1
Sequence (Q38C91 whole entry): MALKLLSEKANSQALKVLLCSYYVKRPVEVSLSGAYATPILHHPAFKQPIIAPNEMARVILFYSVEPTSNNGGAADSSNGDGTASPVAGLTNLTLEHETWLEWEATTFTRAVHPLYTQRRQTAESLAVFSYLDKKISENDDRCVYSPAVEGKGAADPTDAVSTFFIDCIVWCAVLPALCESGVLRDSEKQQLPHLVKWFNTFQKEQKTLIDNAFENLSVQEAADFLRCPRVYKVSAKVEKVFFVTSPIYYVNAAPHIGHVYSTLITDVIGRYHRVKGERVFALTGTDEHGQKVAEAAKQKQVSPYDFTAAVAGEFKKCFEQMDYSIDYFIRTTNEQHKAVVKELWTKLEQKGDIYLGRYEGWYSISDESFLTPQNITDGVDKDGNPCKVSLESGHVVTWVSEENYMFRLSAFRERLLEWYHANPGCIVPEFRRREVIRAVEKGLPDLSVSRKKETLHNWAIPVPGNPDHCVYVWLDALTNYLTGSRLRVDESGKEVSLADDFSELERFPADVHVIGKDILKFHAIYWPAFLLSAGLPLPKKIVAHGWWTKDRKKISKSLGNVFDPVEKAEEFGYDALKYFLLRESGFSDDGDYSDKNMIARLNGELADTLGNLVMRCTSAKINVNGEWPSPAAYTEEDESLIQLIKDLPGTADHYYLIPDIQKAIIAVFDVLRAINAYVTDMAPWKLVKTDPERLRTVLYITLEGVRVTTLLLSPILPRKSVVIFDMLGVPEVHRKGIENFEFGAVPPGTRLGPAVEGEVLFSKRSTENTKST
Calls of active or inactive are those of the source.
quantity: IC50

O=C(CSc1n[nH]c2c3ccccc3nc-2n1)Nc1ccc2c(c1)OCO2 1.57 µM (active)
Clc1cccc(N/N=C(\Cc2nc3ccccc3[nH]2)c2ccccc2)c1 3.09 µM (active)
Cc1ccc(NC(=O)CN2C(=O)CN=C(c3ccccc3)c3cc(Cl)ccc32)cc1 2.82 µM (active)
O=C1CCCN1CCCNc1ncnc2c1[nH]c1ccc(Cl)cc12 4.36 µM (active)

----------
biological target: RNA-binding protein pos-1 (Caenorhabditis elegans, UniProt G5EF15); assay: disruptors of C. elegans POS-1 RNA interaction – biochemical, fluorescence polarization, dose response (AID 1964);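 note: purified POS-1 fused to maltose binding protein made in E. coli; potency of compounds blocking POS-1 binding to fluorescent RNA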
Sequence (G5EF15 whole entry, the tested form may be a part): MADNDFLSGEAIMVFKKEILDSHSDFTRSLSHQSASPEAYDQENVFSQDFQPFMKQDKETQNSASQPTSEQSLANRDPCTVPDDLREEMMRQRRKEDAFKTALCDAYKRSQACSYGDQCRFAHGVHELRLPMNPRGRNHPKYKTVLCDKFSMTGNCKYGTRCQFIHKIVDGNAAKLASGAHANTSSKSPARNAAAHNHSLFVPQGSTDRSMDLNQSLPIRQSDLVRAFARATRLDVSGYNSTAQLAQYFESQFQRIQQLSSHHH
Calls of active or inactive are those of the source.

molecule	EC50
CSc1sccc1/C=C(/C#N)C(=O)c1ccco1	> 300 µM (not active)
CN(C)C1C(=O)C(C(N)=O)=C(O)C2(O)C(O)=C3C(=O)c4c(O)cccc4C(C)(O)C3C(O)C12 (stereo not given)	65.8 µM (active)
Cc1ccc(C(=O)C2=C(O)C(=O)N(Cc3ccco3)C2c2cccc(Br)c2)o1 (stereo not given)	> 300 µM (not active)
O=C(Nc1ccccc1)c1nn(-c2ccccc2)c(=O)cc1C(F)(F)F	> 300 µM (not active)
COc1ccc2c(c1)S/C(=C\C(=O)c1ccncc1)N2C	> 300 µM (not active)
Fc1ccc(-c2nc3c(Cl)cc(C(F)(F)F)cn3c2Cl)cc1	41.6 µM (active)
Nc1cc(C(=O)O)c(N)c2c1C(=O)c1ccccc1C2=O	4.27 µM (active)
CN(C)CCN(C)Cc1c2ccccc2c(CN(C)CCN(C)C)c2ccccc12	12.1 µM (active)
CN1CCN(C2=C(Cl)C(=O)C(c3cnc(N4CCCCC4)s3)=C(Cl)C2=O)CC1	5.11 µM (active)
O=C(Nc1nccs1)c1ccc(-c2ccc([N+](=O)[O-])cc2)o1	12.3 µM (inconclusive)

----------
Endpoint: AC50. System: Cytochrome P450 1A2 (Homo sapiens, UniProt P05177). Items follow.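 Note: PubChem cytochrome P450 panel assay, CYP1A2 panel member.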
Sequence (P05177 whole entry): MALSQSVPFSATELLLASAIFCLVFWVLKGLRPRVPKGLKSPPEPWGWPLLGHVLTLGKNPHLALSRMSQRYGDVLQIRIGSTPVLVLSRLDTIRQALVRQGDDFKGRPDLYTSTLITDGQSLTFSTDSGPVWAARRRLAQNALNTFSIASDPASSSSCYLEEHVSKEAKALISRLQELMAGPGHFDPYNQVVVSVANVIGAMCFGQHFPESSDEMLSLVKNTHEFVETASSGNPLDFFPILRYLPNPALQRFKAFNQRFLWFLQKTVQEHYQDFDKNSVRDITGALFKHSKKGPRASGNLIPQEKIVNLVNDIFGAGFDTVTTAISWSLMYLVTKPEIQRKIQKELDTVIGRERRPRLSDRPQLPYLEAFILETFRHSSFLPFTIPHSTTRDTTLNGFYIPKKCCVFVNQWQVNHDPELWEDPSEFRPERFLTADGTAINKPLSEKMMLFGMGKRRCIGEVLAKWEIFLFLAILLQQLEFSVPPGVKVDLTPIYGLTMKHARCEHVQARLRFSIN

compound	study system	AC50
CN1CCc2cc(Cl)c(O)cc2[C@H](c2ccccc2)C1	Cytochrome P450 1A2 (Homo sapiens, UniProt P05177)	31.6 µM (inconclusive)
O=C(c1ccco1)N1CCC2(CCCN(C(c3ccccc3)c3ccccc3)C2)CC1	Cytochrome P450 1A2 (Homo sapiens, UniProt P05177)	15.8 µM (inconclusive)
CCCCCCCC/C=C\CCCCCCCC(=O)NCc1ccc(O)c(OC)c1	Cytochrome P450 1A2 (Homo sapiens, UniProt P05177)	20 µM (inconclusive)
O=C(NC1CCCCC1)C(c1cccs1)N(Cc1cccs1)C(=O)c1ccco1 (stereo unspecified)	Cytochrome P450 1A2 (Homo sapiens, UniProt P05177)	20 µM (inconclusive)
O=C(CN1CCN(S(=O)(=O)c2ccc(F)cc2)CC1)Nc1ccc2c(c1)OCO2	Cytochrome P450 1A2 (Homo sapiens, UniProt P05177)	25.1 µM (inconclusive)
COc1ccc(-c2nnn(CC(=O)N(CC(=O)NCCC(C)C)Cc3cccs3)n2)cc1OC	Cytochrome P450 1A2 (Homo sapiens, UniProt P05177)	31.6 µM (inconclusive)
O=[N+]([O-])c1ccc(Cl)c(/C=N/N2CCN(Cc3ccccc3Cl)CC2)c1	Cytochrome P450 1A2 (Homo sapiens, UniProt P05177)	2.51 µM (inconclusive)
CCNc1ncc2nc(-c3cn(C)c4ccccc34)c(=O)n(Cc3cccc(OC)c3)c2n1	Cytochrome P450 1A2 (Homo sapiens, UniProt P05177)	12.6 µM (inconclusive)
O=C(Cc1ccc(S(=O)(=O)N2CCOCC2)s1)Nc1nc2c(s1)CCCC2	Cytochrome P450 1A2 (Homo sapiens, UniProt P05177)	28.2 µM (inconclusive)
COc1ccc(C2(CNC(=O)/C=C/c3ccco3)CCCC2)cc1OC	Cytochrome P450 1A2 (Homo sapiens, UniProt P05177)	22.4 µM (inconclusive)
COc1ccccc1N1CCN(C[C@@H](C(=O)NC(C)(C)C)c2ccccc2)CC1	Cytochrome P450 1A2 (Homo sapiens, UniProt P05177)	0.631 µM (inconclusive)
COc1ccc(Oc2ncc3ncc(=O)n(CCc4ccccc4)c3n2)cc1	Cytochrome P450 1A2 (Homo sapiens, UniProt P05177)	0.631 µM (inconclusive)
CCOC(=O)c1c(NC(=O)CCC(=O)N2CCOCC2)sc2c1CC(C)(C)OC2	Cytochrome P450 1A2 (Homo sapiens, UniProt P05177)	15.8 µM (inconclusive)
Cc1cccc(NC(=O)c2cccc(N3C(=O)C4C5CCC(C5)C4C3=O)c2)c1C (stereo unspecified)	Cytochrome P450 1A2 (Homo sapiens, UniProt P05177)	25.1 µM (inconclusive)
CN/C(=N\c1ccc(C2=NNC(=O)C[C@@H]2C)cc1)NC#N	Cytochrome P450 1A2 (Homo sapiens, UniProt P05177)	39.8 µM (inconclusive)
COc1cc(C)cc2c(-c3c(O)cc(O)c4c3C[C@H](C)N[C@@H]4C)cc(-c3cc(-c4c(O)cc(O)c5c4C[C@H](C)N[C@@H]5C)c4cc(C)cc(OC)c4c3O)c(O)c12	Cytochrome P450 1A2 (Homo sapiens, UniProt P05177)	0.2 µM (inconclusive)

----------
Reported EC50 values for the following compounds.
biological target: UniProt P9WHJ3; test: Fluorescence Cell-Free Homogeneous Dose Retest to Identify Inhibitors of RecA-Intein Splicing Activity. [Related pubchem assays (depositor defined):AID2097, AID2223, AID489010, AID492950]; assay type: functional
The source made the active and inactive calls.
quantity: EC50

O=[N+]([O-])c1cc([N+](=O)[O-])c2oc(-c3ccccc3)c(Br)c2c1O 111 µM (active)
O=C1C(Cl)=C(N2CCCCC2)C(=O)N1c1ccccc1Cl 2.45 µM (active)
CN1CCN(C2=C(Cl)C(=O)C(c3cnc(N4CCCCC4)s3)=C(Cl)C2=O)CC1 1.29 µM (active)
O=[N+]([O-])c1cc(Br)c(Nc2ccccc2)c([N+](=O)[O-])c1 5.15 µM (active)

----------
system: Streptococcus; assay: GAS UMAA2166 growth inhibition – luminescence, BacTiterGlo, counter-screen for streptokinase expression inhibitor project, dose response (AID 1915); format: functional, organism-based;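 note: potency for reduction of bacterial viability or growth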
Calls of active or inactive are those of the source.
quantity: EC50

CC(C)(C)CC(=O)N1CCC(c2nc(O)c3nnn(Cc4c(F)cccc4Cl)c3n2)CC1 16.7 µM (active)
Cc1c(C(=O)NNC(=O)c2ccccc2O)oc2ccc(Br)cc12 8.5 µM (active)
Cc1cccc(Nc2nc(N)nc(CN3CCN(c4ccc(F)cc4)CC3)n2)c1 95.3 µM (active)
